Target Under Test: native mouse MET on living cells (mouse, UniProt P16056 25-1379)
Assay Notes: cell-based or functional assay
Quantity: scatter score 0-4, MLP29, 1.000 nM (score)
Use score as the unit, but write only the number.

Solved cases (2 shown):
74C8 chimeric llama-human IgG1 mAb (antibody, V domains shown, llama VH on human IgG1 CH1-CH2-CH3, llama VL on human lambda CL) VH: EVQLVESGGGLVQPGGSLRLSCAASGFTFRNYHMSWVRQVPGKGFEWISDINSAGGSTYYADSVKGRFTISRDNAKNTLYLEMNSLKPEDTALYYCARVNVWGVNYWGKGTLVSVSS VL: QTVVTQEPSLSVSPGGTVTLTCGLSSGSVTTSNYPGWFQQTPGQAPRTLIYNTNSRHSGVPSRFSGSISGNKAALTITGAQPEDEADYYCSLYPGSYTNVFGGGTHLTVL :: 3
71A3 chimeric llama-human IgG1 mAb (antibody, V domains shown, llama VH on human IgG1 CH1-CH2-CH3, llama VL on human lambda CL) VH: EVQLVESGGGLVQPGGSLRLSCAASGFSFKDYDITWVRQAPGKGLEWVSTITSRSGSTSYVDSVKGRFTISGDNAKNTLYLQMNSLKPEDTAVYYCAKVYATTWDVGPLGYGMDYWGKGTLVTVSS VL: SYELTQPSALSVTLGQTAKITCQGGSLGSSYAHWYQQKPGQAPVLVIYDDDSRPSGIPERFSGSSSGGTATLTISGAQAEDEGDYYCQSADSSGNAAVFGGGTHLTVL :: 4

Per the records, this binder ( 71G2 chimeric llama-human IgG1 mAb (antibody, V domains shown, llama VH on human IgG1 CH1-CH2-CH3, llama VL on human lambda CL) VH: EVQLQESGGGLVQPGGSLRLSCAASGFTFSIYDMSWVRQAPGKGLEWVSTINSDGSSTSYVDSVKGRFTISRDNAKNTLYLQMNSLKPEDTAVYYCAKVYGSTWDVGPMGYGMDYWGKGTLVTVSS VL: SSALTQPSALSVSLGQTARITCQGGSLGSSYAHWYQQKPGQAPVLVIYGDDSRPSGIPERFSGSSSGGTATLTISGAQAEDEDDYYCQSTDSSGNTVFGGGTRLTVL ) has scatter score 0-4, MLP29, 1.000 nM equal to 4
